- protocol-notes: Enzymatic stability of prodrug in rat liver S9
- Assay type: in vitro ADME
- experimental-conditions: rat liver S9 0.5 mg/mL, pH 7.4, 1 mM NADPH, 37° C.; read-out: T1/2 Parent Prodrug Cleavage (min) rLiver
metric-name: half-life at 40 µM (min)

Some entries whose results are on file:
COCCNC(=O)COC(=O)/C=C/C(=O)OC : 10
COC(=O)/C=C/C(=O)OCC(=O)N(C)C : 6
CCCCNC(=O)COC(=O)/C=C/C(=O)OC : 2
COC(=O)/C=C/C(=O)OCC(=O)NCc1ccccc1 : 9
CCN(CC)C(=O)COC(=O)/C=C/C(=O)OC : 2

a = COC(=O)/C=C/C(=O)OCC(=O)N(C)OC
b = COC(=O)/C=C/C(=O)OCC(=O)N1CCOCC1
I would appreciate it if you could say which entry, a or b , has the lower half-life at 40 µM value. Output the label that corresponds to your choice.
a

----------
melting point values for the compounds below.

COC(=O)/C=C/C(=O)O[C@@H](C)C(=O)N1CCOCC1 : 79 to 82 °C
COCCN(CCOC)C(=O)COC(=O)/C=C/C(=O)OC : 79 to 82 °C
COC(=O)/C=C/C(=O)OCC(=O)N1CCOCC1 : 124 to 126 °C

Turning now to a further compound:
For reference, reported melting point for COC(=O)/C=C/C(=O)OC(C)C(=O)N1CCOCC1 (stereo not shown) stands at 70 to 73 °C

----------
- protocol-notes: Enzymatic stability of prodrug in porcine pancreatin
- Type: in vitro ADME
- experimental-conditions: pig; porcine pancreatin 10 mg/mL, 0.1M Tris pH 7.4, 37° C.; read-out: T1/2 Parent Prodrug Cleavage (min) pPancreatin
metric-name: half-life at 40 µM (min)

COCCNC(=O)COC(=O)/C=C/C(=O)OC : 3

I = COC(=O)/C=C/C(=O)OCC(=O)N1CCOCC1
II = CCCCNC(=O)COC(=O)/C=C/C(=O)OC
III = COC(=O)/C=C/C(=O)OCC(=O)N(C)OC
IV = COC(=O)/C=C/C(=O)OCC(=O)NCc1ccccc1
// ranking: key=half-life at 40 µM, reverse=True Reply: labels, ordered per the request.
I, III, II, IV
(I: 8 min, III: 4 min, II: 2 min, IV: 1 min)

A = CCN(CC)C(=O)COC(=O)/C=C/C(=O)OC
B = COC(=O)/C=C/C(=O)OCC(=O)N(C)C
Sorting by half-life at 40 µM in descending order, would A or B appear first? Output the label that corresponds to your choice.
A

----------
- protocol-notes: Enzymatic stability of prodrug in CaCo2 S9 homogenate
- Type: in vitro ADME
- experimental-conditions: human, Caco-2 cell S9 homogenate; CaCo2 S9 0.5 mg/mL, 0.1M Tris pH 7.4, 37° C.; read-out: T1/2 Parent Prodrug Cleavage (min) CaCo2
- Experimental: CaCo2 S9 homogenate was prepared using the following procedure. CaCo2 cells were grown in culture for 21 days prior to harvesting. Culture medium was removed from the culture vessel and the monolayer was rinsed twice with 10-15 mL chilled PBS buffer. PBS buffer (7-10 mL) was added to the flask and the cells scraped from the growth surface and transferred to a centrifuge tube. The cells were pelleted by centrifugation at 1500 rpm for 5 min at 4° C. […]
metric-name: half-life at 40 µM (min)

P = CCCCNC(=O)COC(=O)/C=C/C(=O)OC
Q = CCN(CC)C(=O)COC(=O)/C=C/C(=O)OC
R = COC(=O)/C=C/C(=O)OCC(=O)N(C)OC
S = COCCNC(=O)COC(=O)/C=C/C(=O)OC
Please list the entries, largest half-life at 40 µM first. Reply: labels, ordered per the request.
S, Q, P, R
(S: 30 min, Q: 8 min, P: 5 min, R: 3 min)
